// provenance: patent US10364245B2

# system under test: UniProt:Q16539
# Sequence (Q16539 whole entry): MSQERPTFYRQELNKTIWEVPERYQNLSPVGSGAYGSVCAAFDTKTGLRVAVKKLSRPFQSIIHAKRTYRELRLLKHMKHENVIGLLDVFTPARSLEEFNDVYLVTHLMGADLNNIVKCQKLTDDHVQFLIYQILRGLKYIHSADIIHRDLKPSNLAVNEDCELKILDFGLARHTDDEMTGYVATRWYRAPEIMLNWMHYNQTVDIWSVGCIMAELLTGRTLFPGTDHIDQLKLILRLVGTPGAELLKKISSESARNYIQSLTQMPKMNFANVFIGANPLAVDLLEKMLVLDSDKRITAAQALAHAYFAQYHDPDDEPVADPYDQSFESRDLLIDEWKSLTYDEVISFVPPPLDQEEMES
# experimental protocol: P38 alpha enzyme inhibition assay (Alphascreen kinase activity assay)
# details: 100 pM p38 alpha, 2 hours preincubation at 25° C., 250 μM ATP, ATF-2 fusion protein; read-out: p38α inhibition
pIC50: −log10 of the molar value.
measurement type: pIC50

## Input Fill in the blank: the reported pIC50 of CC(C)(C)c1cc(NC(=O)N[C@H]2CC[C@@H](Oc3ccc4nnc(C(C)(C)C)n4c3)c3ccccc32)nc(C(=O)NCCN2CCOCC2)n1 is ____.
## Output > 9.00

## Input Please give the measured pIC50 for this compound: COCCN(C)C(C)(C)CNC(=O)c1nc(NC(=O)N[C@H]2CC[C@@H](Oc3ccc4nnc(C(C)(C)C)n4c3)c3ccccc32)cc(C(C)(C)C)n1
## Output 8.00 to 9.00

## Input Which pIC50 reading was recorded for the compound CN(C)CCNC(=O)c1nc(NC(=O)N[C@H]2CC[C@@H](Oc3ccc4nnc(C5CCCC5)n4c3)c3ccccc32)cc(C(C)(C)C)n1 ?
## Output 8.00 to 9.00
